# System: P388 leukemia ip, CD2F1 mice, survival T/C
# measurement-notes: NCI In Vivo Anticancer Drug Screen. Data for tumor model P388 Leukemia (intraperitoneal) in CD2F1 (CDF1) mice
# experimental-parameters: endpoint: median survival time; dose: 12.5 mg/kg/injection; schedule: Q01DX009 (ip); vehicle: Klucel (hydroxypropylcellulose) (HPC); higher = longer survival
Inconclusive results and toxic doses are left out.
Listed here: items and their measured T/C.

{"compound": "O=[N+]([O-])c1c(N2CCN(CCO)CC2)nc2ccccn12", "assayed-target": "P388 leukemia ip, CD2F1 mice, survival T/C", "T/C": "99 % of control"}
{"compound": "O=C(N/N=c1/sc2ccccc2n1Cc1ccccc1)c1ccncc1", "assayed-target": "P388 leukemia ip, CD2F1 mice, survival T/C", "T/C": "100 % of control"}
{"compound": "CC(=O)N(C)C(C(=O)N1CC(C)CC1C(=O)N(C)C1C(=O)NC(CC(C)C)C(=O)N2CC(C)CC2C(=O)NC(CC(C)C)C(=O)N(C)C(C(C)C)C(=O)N2CCCC2C(=O)N(C)C(CC(C)C)C(=O)NCC(=O)OC1C)C(C)C (configuration not stated)", "assayed-target": "P388 leukemia ip, CD2F1 mice, survival T/C", "T/C": "100 % of control"}
{"compound": "CCCCCC[C@H]([C@H](C)O)n1cnc2c(N)ncnc21", "assayed-target": "P388 leukemia ip, CD2F1 mice, survival T/C", "T/C": "105 % of control"}
{"compound": "Nc1nc2nn(-c3ccc(C(=O)NC(CCC(=O)O)C(=O)O)cc3)nc2c(=O)[nH]1 (configuration not stated)", "assayed-target": "P388 leukemia ip, CD2F1 mice, survival T/C", "T/C": "95 % of control"}
{"compound": "O=C1CC(c2ccccc2)Oc2cc(O)cc(O)c21 (configuration not stated)", "assayed-target": "P388 leukemia ip, CD2F1 mice, survival T/C", "T/C": "98 % of control"}
{"compound": "CCn1c(=O)c2[nH]c(Cl)nc2n(CC(C)Cl)c1=O (configuration not stated)", "assayed-target": "P388 leukemia ip, CD2F1 mice, survival T/C", "T/C": "94 % of control"}
